systemName: GLP-1R (Homo sapiens, UniProt P43220)
Sequence (P43220 24-463): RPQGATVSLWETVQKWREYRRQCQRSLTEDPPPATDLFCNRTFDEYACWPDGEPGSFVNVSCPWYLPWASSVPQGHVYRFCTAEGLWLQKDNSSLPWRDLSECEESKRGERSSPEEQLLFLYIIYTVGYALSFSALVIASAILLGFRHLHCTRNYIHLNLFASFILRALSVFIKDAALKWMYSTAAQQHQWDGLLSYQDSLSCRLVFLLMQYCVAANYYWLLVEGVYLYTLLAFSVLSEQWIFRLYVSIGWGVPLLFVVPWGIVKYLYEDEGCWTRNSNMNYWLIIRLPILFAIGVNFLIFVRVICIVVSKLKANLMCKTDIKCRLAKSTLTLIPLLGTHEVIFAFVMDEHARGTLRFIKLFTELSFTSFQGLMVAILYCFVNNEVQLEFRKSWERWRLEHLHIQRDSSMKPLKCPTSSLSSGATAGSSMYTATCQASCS
testProtocol: GLP-1R agonist cAMP stimulation assay (HTRF cAMP)
details: HEK293 cell line expressing GLP-1 target; HTRF cAMP agonist mode, 30 min at RT
readoutName: log10 of EC50 (log10 of the value in nM)
A value of 2 here means EC50 of 100 in nM, since values are log10.

# annotated cases, reported log10 of EC50 shown
>>> print(df.to_string())
                                   compound                             systemname    readoutname  recordedresult
0  Cc1n[nH]c2c(F)cc(C(=O)Nc3ccc4c(c3)nc(Cc3cc(F)c(-c5cccc(OCc6ccc(Cl)cc6F)n5)cc3CO)n4C[C@@H]3CCO3)cc12  GLP-1R (Homo sapiens, UniProt P43220)  log10 of EC50           -0.43
1  Cc1n[nH]c2c(F)cc(C(=O)Nc3ccc4nc(CN5CC=C(c6cccc(OCc7ccc(C#N)cc7F)n6)CC5)n(CC5CCO5)c4c3)cc12 (stereo not drawn)  GLP-1R (Homo sapiens, UniProt P43220)  log10 of EC50            0.00
2  Cc1n[nH]c2c(F)cc(NC(=O)c3ccc4c(c3)nc(CN3CC=C(c5cccc(OCc6ccc(C#N)cc6F)n5)CC3)n4C[C@@H]3CCO3)cc12  GLP-1R (Homo sapiens, UniProt P43220)  log10 of EC50           -0.64
3  O=C(NCC(=O)N1C[C@@H](F)C[C@H]1C(=O)O)c1ccc2c(c1)nc(CN1CCC(c3cccc(OCc4ccc(Cl)cn4)n3)CC1)n2C[C@@H]1CCO1  GLP-1R (Homo sapiens, UniProt P43220)  log10 of EC50            0.64
4  O=C(Nc1ccc2c(c1)nc(CN1CC=C(c3cccc(OCc4ccc(Cl)cc4F)n3)CC1)n2C[C@@H]1CCO1)c1ccc2[nH]c(=O)[nH]c2c1  GLP-1R (Homo sapiens, UniProt P43220)  log10 of EC50           -0.68

Task item: Data request, read-out log10 of EC50, for `COC(=O)[C@@H]1CC(F)(F)CN1C(=O)CNC(=O)c1ccc2c(c1)nc(CN1CC=C(c3cccc(OCc4ccc(Cl)cc4F)n3)CC1)n2C[C@@H]1CCO1`
Reply: 1.85

Task item: Data request, read-out log10 of EC50, for `CCn1cncc1Cn1c(CN2CC=C(c3cccc(OCc4ccc(Cl)cc4F)n3)CC2)nc2cc(NC(=O)c3cc(F)c4[nH]nc(C)c4c3)ccc21`
Reply: -0.68

Task item: Data request, read-out log10 of EC50, for COCCn1c(Cc2ccc(-c3cccc(OCc4ccc(C#N)cc4F)n3)cc2)nc2cc(C(=O)NCC(O)c3ccc(O)cc3)ccc21 (stereo not drawn)
Reply: 2.75

Task item: Data request, read-out log10 of EC50, for `O=C(N[C@@H](Cc1ccc(O)cc1)C(=O)O)c1ccc2c(c1)nc(CN1CCC(c3cccc(OCc4ccc(Cl)cc4F)n3)CC1)n2C[C@@H]1CCO1`
Reply: 2.13

Task item: Data request, read-out log10 of EC50, for `O=C(NCC(=O)N1C[C@H](O)C[C@@H]1C(=O)O)c1ccc2c(c1)nc(CN1CCC(c3cccc(OCc4ccc(Cl)cc4F)n3)CC1)n2C[C@@H]1CCO1`
Reply: 1.63

Task item: Data request, read-out log10 of EC50, for `O=C(Nc1ccc2[nH]c(=O)[nH]c2c1)c1ccc2nc(CN3CC=C(c4cccc(OCc5ccc(Cl)cc5F)n4)CC3)n(C[C@@H]3CCO3)c2c1`
Reply: 0.01

###

So I've got pIC50 readings for GLP-1R (Homo sapiens), take a look.
The meaning of pIC50 here: minus log10 of the concentration in molar units.

In [3]: df
Out[3]:
                                   compound             systemname  readoutname  recordedresult
0  CCn1cncc1Cn1c(Cc2cc(F)c(-c3cccc(OCc4ccc(Cl)cc4F)n3)cc2F)nc2cc(NC(=O)c3cc(F)c4[nH]nc(C)c4c3)ccc21  GLP-1R (Homo sapiens)        pIC50            7.50

Task item: Data request, read-out pIC50, for Cc1n[nH]c2c(C)cc(C(=O)Nc3ccc4c(c3)nc(C3CC35CCN(c3cccc(OCc6ccc(Cl)cc6F)n3)CC5)n4CC3CCO3)cc12 (stereo not drawn)
Reply: 6.84

Task item: Data request, read-out pIC50, for `Cc1n[nH]c2c(C)cc(NC(=O)c3ccc4c(c3)nc(CN3CCC(c5cccc(OCc6ccc(C#N)cc6F)n5)CC3)n4C[C@@H]3CCO3)cc12`
Reply: 5.90

Task item: Data request, read-out pIC50, for `Cc1n[nH]c2ccc(C(=O)Nc3ccc4c(c3)nc(CN3CC=C(c5cccc(OCc6ccc(Cl)cn6)n5)CC3)n4C[C@@H]3CCO3)cc12`
Reply: 6.94

Task item: Data request, read-out pIC50, for `O=C(NCC(=O)N1C[C@H](O)C[C@H]1C(=O)O)c1ccc2c(c1)nc(CN1CCC(c3cccc(OCc4ccc(Cl)cc4F)n3)CC1)n2C[C@@H]1CCO1`
Reply: 6.46

Task item: Data request, read-out pIC50, for Cc1n[nH]c2c(C)cc(NC(=O)c3ccc4c(c3)nc(CN3CCC(c5cccc6c5OC(C)(c5ccc(C#N)cc5F)O6)CC3)n4CC3CCO3)cc12 (stereo not drawn)
Reply: 5.96

###

systemName: GLP-1R (Homo sapiens)
testProtocol: GLP-1R agonist cAMP stimulation assay (HTRF cAMP)
details: HEK293 cell line expressing GLP-1 target; HTRF cAMP agonist mode, 30 min at RT
Reported values of log10 of EC50 for individual entries
A value of 2 here means EC50 of 100 in nM, since values are log10.

Task item: Param readout= log10 of EC50; system= GLP-1R (Homo sapiens); entry= CC(C)c1n[nH]c2ccc(C(=O)Nc3ccc4c(c3)nc(CN3CC=C(c5cccc6c5OC(C)(c5ccc(C#N)cc5F)O6)CC3)n4CC3CCO3)cc12 (stereo not drawn) ; returns value.
Reply: -0.41

Task item: Param readout= log10 of EC50; system= GLP-1R (Homo sapiens); entry= `COc1n[nH]c2ccc(NC(=O)c3ccc4c(c3)nc(CN3CC=C(c5cccc(OCc6ccc(Cl)cc6F)n5)CC3)n4C[C@@H]3CCO3)cc12` ; returns value.
Reply: 0.95

Task item: Param readout= log10 of EC50; system= GLP-1R (Homo sapiens); entry= `COCCn1c(CN2CCC(c3cccc(OCc4ccc(Cl)cc4F)n3)CC2)nc2cc(C(=O)NCc3ccc(NC(C)=O)cc3)ccc21` ; returns value.
Reply: 2.11

Task item: Param readout= log10 of EC50; system= GLP-1R (Homo sapiens); entry= Cc1n[nH]c2c(Cl)cc(C(=O)Nc3ccc4c(c3)nc(C3CC35CCN(c3cccc(OCc6ccc(Cl)cc6F)n3)CC5)n4CC3CCO3)cc12 (stereo not drawn) ; returns value.
Reply: 0.11

Task item: Param readout= log10 of EC50; system= GLP-1R (Homo sapiens); entry= Cc1n[nH]c2c(C(F)(F)F)cc(C(=O)Nc3ccc4c(c3)nc(Cc3ccc(-c5cccc6c5OC(C)(c5ccc(C#N)cc5F)O6)cc3F)n4C[C@@H]3CCO3)cc12 (stereo partly drawn) ; returns value.
Reply: 0.02

Task item: Param readout= log10 of EC50; system= GLP-1R (Homo sapiens); entry= `C[C@H](NC(=O)c1ccc2c(c1)nc(CN1CCC(c3cccc(OCc4ccc(Cl)cc4F)n3)CC1)n2C[C@@H]1CCO1)C(=O)N1CC(F)(F)C[C@H]1C(=O)O` ; returns value.
Reply: 0.15

###

systemName: UniProt:P43220
testProtocol: GLP-1R agonist cAMP stimulation assay (HTRF cAMP)
details: HEK293 cell line expressing GLP-1 target; HTRF cAMP agonist mode, 30 min at RT
Reported values of pEC50 for individual entries
The meaning of pEC50 here: minus log10 of the concentration in molar units.

compound	pEC50
O=C(Nc1ccc2[nH]nc(C(F)(F)F)c2c1)c1ccc2c(c1)nc(CN1CC=C(c3cccc(OCc4ccc(Cl)cc4F)n3)CC1)n2C[C@@H]1CCO1	9.06

Task item: Data request, read-out pEC50, for `Cc1cc(NC(=O)c2ccc3c(c2)nc(CN2CC=C(c4cccc(OCc5ccc(C#N)cc5F)n4)CC2)n3C[C@@H]2CCO2)cc2c1NC(=O)C21CC1`
Reply: 9.72

Task item: Data request, read-out pEC50, for `Cc1cc(C(=O)Nc2ccc3c(c2)nc(CN2CC=C(c4cccc(OCc5ccc(Cl)cc5F)n4)CC2)n3C[C@@H]2CCO2)c(F)c2c(C)n[nH]c12`
Reply: 8.45

Task item: Data request, read-out pEC50, for CC1(c2ccc(Cl)cc2F)Oc2cccc(C3=CCN(Cc4nc5cc(C(=O)Nc6ccc7[nH]nc(F)c7c6)ccc5n4CC4CCO4)CC3)c2O1 (stereo not drawn) [Compound 292]
Reply: 8.06

Task item: Data request, read-out pEC50, for `COCCn1c(CN2CCC(c3cccc(OCc4ccc(Cl)cc4F)n3)CC2)nc2cc(C(=O)NCc3cccc(O)c3)ccc21`
Reply: 6.95

Task item: Data request, read-out pEC50, for Cc1n[nH]c2c(Cl)cc(NC(=O)c3ccc4c(c3)nc(CN3CC=C(c5cccc6c5O[C@@](C)(c5ccc(Cl)cc5F)O6)C[C@@H]3C)n4CC3CCO3)cc12 (stereo partly drawn)
Reply: 8.78
